MEASUREMENT KIND: melting point

Answered cases to consult:
Form field: reported melting point of O=C(CCN1C(=O)c2ccccc2C1=O)c1ccc(Cl)cc1C(=O)c1ccccc1
163 to 164 °C

Same lookup for FC(F)(F)c1cccc(OCc2ccc3ccccc3n2)c1 , please.
77 to 78 °C

Same lookup for O=C1CN(C(=O)N2CCCC2)c2c(F)cccc2N1 , please.
126 to 132 °C

Same lookup for CC(=O)c1cc(Oc2ncccc2C(=O)NC[C@H]2CC[C@H](C(C)(C)O)CC2)ccc1Cl , please.
106 to 108 °C

Continue with the next compound.
Form field: reported melting point of O=c1[nH]c(-c2ccccn2)c(I)c(=O)n1-c1ccc(OC(F)(F)F)cc1
215 to 217 °C
